system: MDA-MB-435; experiment: NCI tumour cell line growth inhibition, 48 h
observed_property: TGI

Prompt: Query for MDA-MB-435: what TGI does the record show for `Cc1ccc2c(c1)sc(-c1ccc(N(C)C)cc1)[n+]2C` ?
Response: 13 µM

Prompt: Give TGI (MDA-MB-435) of the following compound: CC1=C(N2CC2)C(=O)c2nc3n(c2C1=O)CCC3O (centres undefined)
Response: 0.0484 µM

Prompt: What measured TGI is associated with `CN(C)Cc1cc(N=Nc2ccc(Cl)c(Cl)c2)ccc1O` on MDA-MB-435?
Response: 23.9 µM

Prompt: Enter reported TGI observed with MDA-MB-435 for `O=C(O)C(Cc1cccs1)C(=O)O`
Response: > 100 µM

Prompt: Param readout= TGI; system= MDA-MB-435; entry= `O=C(O)c1nnsc1COCc1ccccc1` ; returns value.
Response: > 100 µM

Prompt: Test system MDA-MB-435; read-out TGI; what value for O=C(CCCC(=O)N1CC(CCl)c2ccc([N+](=O)[O-])cc21)N1CC(CCl)c2ccc([N+](=O)[O-])cc21 (centres undefined) ?
Response: > 100 µM

Prompt: Can you look up TGI on MDA-MB-435 for COc1cc2c(cc1OCCCC(=O)Nc1cc(C(=O)Nc3cc(C(=O)NCCCN(C)C)n(C)n3)n(C)n1)N=CC1CCCN1C2=O (centres undefined) ?
Response: 39 µM

Prompt: Find TGI (MDA-MB-435) for the entry C=C1CCCCCCCCCCC1S(=O)c1ccccc1 (centres undefined)
Response: 59.3 µM

Prompt: What is its TGI for MDA-MB-435? Entry: `O=C1CSC2(CCN(CCCN3c4ccccc4Sc4ccc(Cl)cc43)CC2)N1`
Response: 23.5 µM

Prompt: Lookup: TGI / MDA-MB-435 / `CCN(CC)CCNc1ccc(N=Nc2ccc(S(N)(=O)=O)cc2)c2ccccc12`
Response: 23.6 µM

Prompt: // fetch MDA-MB-435 TGI for `COc1ccc(N=Cc2ccc(N(CCC#N)CCC#N)cc2)cc1`
Response: > 100 µM

Prompt: Record lookup: for MDA-MB-435, what TGI belongs to `Cc1nc2ccccc2n1CCc1nc2ccccc2s1` ?
Response: > 100 µM

Prompt: Recorded TGI for `COC(=O)c1c(O)ccc2c1c1c(n2C)C(=O)c2ccccc2C1=O` with MDA-MB-435, please?
Response: > 100 µM

Prompt: Please state recorded TGI (tested on MDA-MB-435) of `NNC(=O)c1ccccc1NC(=O)/C(=C/c1ccccc1)NC(=O)c1ccccc1`
Response: > 100 µM

Prompt: Under MDA-MB-435: TGI value of COC(=O)CC1C2CC3C(C2=O)C13 (centres undefined) ?
Response: > 100 µM

Prompt: Enter reported TGI observed with MDA-MB-435 for `CSc1n[n+](C)cc(N)c1N`
Response: > 100 µM

Prompt: Entry CCCCS(=N)(=O)CC[C@H](N)C(=O)O (some centres undefined) , system MDA-MB-435: what TGI was measured?
Response: > 10000 µM

Prompt: Provide the documented TGI with MDA-MB-435 as the system for `CC(=O)C(=C(I)I)c1ccccc1`
Response: 29.9 µM

Prompt: Could you share what TGI was measured for OC1CCC(C2C3CCCCC3C3CCCCC3C2C2CCC(O)CC2)CC1 (centres undefined) , tested on MDA-MB-435?
Response: 24.6 µM

Prompt: Enter reported TGI observed with MDA-MB-435 for `c1ccc(N=NNNc2ccc(-c3nc4ccccc4[nH]3)cc2)cc1`
Response: > 100 µM

Prompt: # get_value(readout= TGI, system= MDA-MB-435) for COc1ccc([N+](=O)[O-])c2c(NCC(O)CO)ccnc12 (centres undefined)
Response: > 100 µM

Prompt: Item `COc1ccc(CNc2nc3ccccc3nc2-c2cccs2)cc1` with MDA-MB-435 - TGI?
Response: > 100 µM

Prompt: # returns recorded TGI (system: MDA-MB-435) for S=C1CC(c2ccc(Cl)cc2)Sc2ccccc2N1 (centres undefined)
Response: > 100 µM

Prompt: Find TGI (MDA-MB-435) for the entry O=C1CC(c2cccc(Cl)c2)n2cccc21 (centres undefined)
Response: > 100 µM
